Molecular target: Glycogen synthase kinase-3 beta (Homo sapiens, UniProt P49841)
Sequence (P49841 whole entry): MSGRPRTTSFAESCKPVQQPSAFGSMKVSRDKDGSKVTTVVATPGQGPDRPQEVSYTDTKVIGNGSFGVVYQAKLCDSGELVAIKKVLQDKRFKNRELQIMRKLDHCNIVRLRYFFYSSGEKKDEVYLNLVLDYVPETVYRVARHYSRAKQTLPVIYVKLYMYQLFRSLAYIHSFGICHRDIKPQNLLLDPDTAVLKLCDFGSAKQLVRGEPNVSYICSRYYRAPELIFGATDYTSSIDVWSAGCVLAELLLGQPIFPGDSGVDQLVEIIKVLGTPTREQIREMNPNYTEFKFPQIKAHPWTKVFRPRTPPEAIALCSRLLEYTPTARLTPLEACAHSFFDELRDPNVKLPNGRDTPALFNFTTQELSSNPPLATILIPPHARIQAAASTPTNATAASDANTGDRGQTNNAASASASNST
Experiment: Inhibition of human GSK-3beta by mobility shift micro-fluidic assay
metric: IC50

CC[C@@]1(c2ccccc2)C2=C(CC(C)(C)CC2=O)Nc2n[nH]cc21 yielded IC50 of 515 nM

---

Target: GSK-3beta (H350L mutant) (Homo sapiens, UniProt P49841, H350L)
Sequence (P49841 whole entry, looked up, stated change not applied): as the sequence (P49841 whole entry) above
Experiment: Inhibition of human GSK-3beta H350L mutant (2 to end residues) at 10 uM using phospho GS2 peptide as substrate after 40 mins by [gamma-33ATP] radiometric assay relative to control
Details: human GSK-3beta H350L mutant enzyme (residues 2 to end), probe phospho GS2 peptide
metric: inhibition at 40 min, 10 µM (%)
Form entry: value (%) — number only.

N=C1NC(=O)/C(=C\c2ccc(-c3ccc(Cl)cc3Cl)o2)S1 yielded inhibition at 40 min, 10 µM of 93

CN1C(=N)NC(=O)/C1=C\c1ccc(-c2ccc(F)cc2)o1 yielded inhibition at 40 min, 10 µM of 78

O=C1NC(=S)N/C1=C/c1ccc(-c2ccccc2Cl)o1 yielded inhibition at 40 min, 10 µM of 86

Cc1ccc(-c2ccc(/C=C3/NC(=S)NC3=O)o2)c(Br)c1 yielded inhibition at 40 min, 10 µM of 62

CCCCOC(=O)c1cc(-c2ccc(/C=C3/NC(=S)NC3=O)o2)ccc1Cl yielded inhibition at 40 min, 10 µM of 55

***
Cc1c(-c2ccc(/C=C3/SC(=N)NC3=O)o2)ccc([N+](=O)[O-])c1C yielded inhibition at 40 min, 10 µM of 66

NC1=NC(=O)/C(=C\c2ccc(-c3ccccc3[N+](=O)[O-])o2)S1 yielded inhibition at 40 min, 10 µM of 82

---

# inhibition values compiled below
Test system: Glycogen synthase kinase-3 alpha (Homo sapiens), P49840 [UNDEFINED MUTATION]
Sequence (P49840 whole entry, looked up, stated change not applied): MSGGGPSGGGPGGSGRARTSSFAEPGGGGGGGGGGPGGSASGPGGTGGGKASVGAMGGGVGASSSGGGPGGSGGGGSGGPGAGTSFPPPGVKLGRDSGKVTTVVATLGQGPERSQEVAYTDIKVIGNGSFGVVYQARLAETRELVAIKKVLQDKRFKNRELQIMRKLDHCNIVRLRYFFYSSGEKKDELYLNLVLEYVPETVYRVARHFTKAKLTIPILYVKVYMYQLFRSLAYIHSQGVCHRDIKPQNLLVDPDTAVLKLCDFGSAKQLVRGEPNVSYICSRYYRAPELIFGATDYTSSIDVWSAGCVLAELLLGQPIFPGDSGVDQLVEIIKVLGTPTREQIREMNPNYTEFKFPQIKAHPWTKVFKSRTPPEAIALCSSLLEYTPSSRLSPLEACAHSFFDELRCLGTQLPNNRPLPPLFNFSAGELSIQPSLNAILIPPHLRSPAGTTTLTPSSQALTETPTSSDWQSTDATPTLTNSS
Experiment: Inhibition of human GSK-3alpha S449A mutant (2 to end residues) at 10 uM using phospho GS2 peptide as substrate after 40 mins in presence of [gamma-33ATP] by scintillation counting method relative to control

Sample records with inhibition:
C=CCOC(=O)c1cc(-c2ccc(/C=C3/NC(=S)NC3=O)o2)ccc1Cl yielded inhibition of 93%

O=C1N/C(=N/c2ccccc2)S/C1=C/c1ccc(-c2ccccc2)o1 yielded inhibition of 23%

CCOc1c(/C=C2/SC(=O)NC2=O)cccc1OC yielded inhibition of 54%

CCCCOC(=O)c1cc(-c2ccc(/C=C3/NC(=S)NC3=O)o2)ccc1Cl yielded inhibition of 65%

Cc1cc(C)cc(/N=C2/NC(=O)/C(=C\c3ccc(-c4cccc(Cl)c4)o3)S2)c1 yielded inhibition of 10%

Cc1ccc(-c2ccc(/C=C3/SC(=N)NC3=O)o2)cc1Cl yielded inhibition of 81%

***
O=C1N/C(=N/c2ccccc2)S/C1=C/c1ccco1 yielded inhibition of 21%

O=C1NC(=O)C(c2cnc3ccccn23)=C1c1cn2c3c(cc(F)cc13)CN(C(=O)N1CCCCC1)CC2 [LY-2090314] yielded inhibition of 99%

O=C1NC(=S)N/C1=C/c1ccc(Sc2ccc(Cl)cc2)o1 yielded inhibition of 23%

CC(=O)/N=C1/NC(=O)/C(=C\c2ccc(-c3ccc(C(=O)O)cc3)o2)S1 yielded inhibition of 86%

O=C(O)c1cc(NS(=O)(=O)c2ccc3c4c(cccc24)C(=O)N3)ccc1O yielded inhibition of 15%

These measurements were taken from ChEMBL document CHEMBL4334438.
